Values compiled from paper PMC4698308.

Record form. Attribute: pIC50. Fill in for each entry.
TARGET SYSTEM: recombinant Arabidopsis thaliana ALS wild-type enzyme (WT—sensitive) (Arabidopsis thaliana, UniProt P17597)
Construct: Protein constructs contained an 85 amino acid N-terminal deletion (chloroplast transit peptide); Hexa-histidine tag (N); made in house
Sequence (P17597 86-670): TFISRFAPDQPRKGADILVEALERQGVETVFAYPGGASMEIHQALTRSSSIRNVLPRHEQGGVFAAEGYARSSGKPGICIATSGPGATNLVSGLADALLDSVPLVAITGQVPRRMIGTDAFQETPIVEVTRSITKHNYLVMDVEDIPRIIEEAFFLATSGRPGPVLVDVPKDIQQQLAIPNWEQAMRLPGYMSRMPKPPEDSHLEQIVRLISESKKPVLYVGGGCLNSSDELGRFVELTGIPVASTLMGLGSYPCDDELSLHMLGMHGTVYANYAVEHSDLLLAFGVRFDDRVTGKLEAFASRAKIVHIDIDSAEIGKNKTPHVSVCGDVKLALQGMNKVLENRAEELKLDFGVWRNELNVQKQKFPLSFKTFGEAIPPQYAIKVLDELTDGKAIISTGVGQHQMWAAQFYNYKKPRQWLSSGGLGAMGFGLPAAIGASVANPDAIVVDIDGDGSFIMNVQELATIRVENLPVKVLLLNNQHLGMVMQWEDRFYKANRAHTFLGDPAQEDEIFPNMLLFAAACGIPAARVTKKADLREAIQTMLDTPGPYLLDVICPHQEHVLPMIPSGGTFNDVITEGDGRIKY
ASSAY NOTES: biochemical
RUN CONDITIONS: concentration for 50 % inhibition of WT enzyme; max inhibitor concentration 1.00 × 10^−04 M; read-out: WT sensitivity [IC50]
Give bare numbers, as −log10 of the molar value.

Fill in pIC50 for each of the 7 compounds listed.
1. COc1nc(NC(=O)NS(=O)(=O)c2ccccc2C(F)(F)F)nc(C(F)(F)F)n1 [Tritosulfuron]
2. COc1nn(C(=O)NS(=O)(=O)c2c(C(=O)O)csc2C)c(=O)n1C [Thiencarbazone]
3. COc1cc(OC)nc(Oc2cccc(Oc3nc(OC)cc(OC)n3)c2C(=O)O)n1 [Bispyribac]
4. COc1cc(OC)n2nc(NS(=O)(=O)c3c(C(F)(F)F)ccnc3OC)nc2n1 [Pyroxulam]
5. COc1nn(C(=O)NS(=O)(=O)c2ccccc2OC(F)(F)F)c(=O)n1C [Flucarbazone]
6. COc1ncc(F)c2nc(S(=O)(=O)Nc3c(F)cccc3F)nn12 [Florasulam]
7. COc1cc(OC)nc(NC(=O)NS(=O)(=O)c2cc(CNS(C)(=O)=O)ccc2C(=O)O)n1 [Mesosulfuron]

1: 7.73; 2: 7.61; 3: 8.80; 4: 8.39; 5: 7.61; 6: 8.46; 7: 8.88

Fill in pIC50 for each of the 2 compounds listed.
1. COc1cc(OC)nc(NC(=O)NS(=O)(=O)c2ncccc2OCC(F)(F)F)n1 [Trifloxysulfuron]
2. COc1cc(OC)nc(Sc2cccc3c2C(=O)OC3C)n1 (stereo not drawn) [Pyriftalid]

1: 8.23; 2: 4.70

###

Test system: annual bluegrass (Poa annua L.)
ASSAY NOTES: Whole plant non-target site resistance experiment with P450 inhibitors malathion or PBO (control 21 days after treatment)
Format: in vivo
RUN CONDITIONS: susceptible (S), herbicide with PBO 2100 g ha^−1 applied 60 min prior
MEASUREMENT TYPE: Annual bluegrass control S (%)
Numbers only, in %.

Solved cases (3 shown):
1. COc1cc(OC)nc(NC(=O)NS(=O)(=O)c2ncccc2OCC(F)(F)F)n1 : 94
2. CC(C)C1(C)N=C(c2nc3ccccc3cc2C(=O)O)NC1=O (stereo not shown) : 71
3. COc1cc(OC)nc(NC(=O)NS(=O)(=O)c2cc(NC=O)ccc2C(=O)N(C)C)n1 : 95

Let's switch to this compound now.
Fill in: Annual bluegrass control S of COc1cc(OC)nc(Oc2cccc(Oc3nc(OC)cc(OC)n3)c2C(=O)O)n1 [Bispyribac-sodium] is ___
86

###

Record form. Attribute: Annual bluegrass control RP6. Fill in for each entry.
Tested on: annual bluegrass (Poa annua L.)
ASSAY NOTES: Whole plant non-target site resistance experiment with P450 inhibitors malathion or PBO (control 21 days after treatment)
Assay type: in vivo
RUN CONDITIONS: RP6, herbicide alone, foramsulfuron 29, trifloxysulfuron 27.8, imazaquin 27.5, bispyribac-sodium 70 g ha^−1
Answers are plain numbers, in %.

Fill in Annual bluegrass control RP6 for each of the 4 compounds listed.
1. CC(C)C1(C)N=C(c2nc3ccccc3cc2C(=O)O)NC1=O (stereo not shown) [Imazaquin]
2. COc1cc(OC)nc(NC(=O)NS(=O)(=O)c2cc(NC=O)ccc2C(=O)N(C)C)n1 [Foramsulfuron]
3. COc1cc(OC)nc(NC(=O)NS(=O)(=O)c2ncccc2OCC(F)(F)F)n1 [Trifloxysulfuron]
4. COc1cc(OC)nc(Oc2cccc(Oc3nc(OC)cc(OC)n3)c2C(=O)O)n1 [Bispyribac-sodium]

1: 36; 2: 58; 3: 38; 4: 28

###

Record form. Attribute: IC50. Fill in for each entry.
TARGET SYSTEM: recombinant Arabidopsis thaliana ALS wild-type enzyme (WT—sensitive) (Arabidopsis thaliana, UniProt P17597)
Construct: Protein constructs contained an 85 amino acid N-terminal deletion (chloroplast transit peptide); Hexa-histidine tag (N); made in house
ASSAY NOTES: biochemical
Numbers only, in nM.

Solved cases (3 shown):
1) CC(C)C1(C)N=C(c2ncccc2C(=O)O)NC1=O (stereo not drawn) : 6060
2) COc1cc(OC)nc(Sc2cccc(Cl)c2C(=O)O)n1 : 0.742
3) COc1cc(OC)n2nc(S(=O)(=O)Nc3c(Cl)ccc(C)c3Cl)nc2n1 : 0.441

Fill in IC50 for each of the 6 compounds listed.
1. CC(C)C1(C)N=C(c2nc3ccccc3cc2C(=O)O)NC1=O (stereo not drawn)
2. COc1nc(C)nc(NC(=O)NS(=O)(=O)c2ccccc2CCC(F)(F)F)n1
3. COc1cc(OC)nc(NC(=O)NS(=O)(=O)c2ncccc2C(=O)N(C)C)n1
4. COc1cc(OC)nc(NC(=O)NS(=O)(=O)c2cc(NC=O)ccc2C(=O)N(C)C)n1
5. COCc1cnc(C2=NC(C)(C(C)C)C(=O)N2)c(C(=O)O)c1 (stereo not drawn)
6. O=C(Nc1nc(OC(F)F)cc(OC(F)F)n1)NS(=O)(=O)c1ccccc1C(=O)O

1550
2.88
71.4
7.5
2930
3.14

###

System: annual bluegrass (Poa annua L.)
ASSAY NOTES: Whole plant non-target site resistance experiment with P450 inhibitors malathion or PBO (control 21 days after treatment)
Format: in vivo
RUN CONDITIONS: RP7, herbicide with malathion 1000 g ha^−1 applied 60 min prior
MEASUREMENT TYPE: Annual bluegrass control RP7
A complete answer gives the number followed by the unit.

Solved cases (2 shown):
1. COc1cc(OC)nc(NC(=O)NS(=O)(=O)c2cc(NC=O)ccc2C(=O)N(C)C)n1 : 22%
2. COc1cc(OC)nc(Oc2cccc(Oc3nc(OC)cc(OC)n3)c2C(=O)O)n1 [Bispyribac-sodium] : 47%

Fill in Annual bluegrass control RP7 for each of the 2 molecules listed.
1. CC(C)C1(C)N=C(c2nc3ccccc3cc2C(=O)O)NC1=O (stereo not shown)
2. COc1cc(OC)nc(NC(=O)NS(=O)(=O)c2ncccc2OCC(F)(F)F)n1

8%
28%

###

Test system: recombinant Arabidopsis thaliana ALS variant A205V
Assay type: biochemical
RUN CONDITIONS: IC50 mutant divided by IC50 sensitive ALS; max inhibitor concentration 1.00 × 10^−04 M
Returns 1 (yes) if the recorded Resistance factor A205V is greater than or equal to 20, and 0 (no) otherwise.

1) CC(C)C1(C)N=C(c2ncccc2C(=O)O)NC1=O (stereo not shown) [Imazapyr] : 0 (no)
2) COc1cc(OC)nc(Sc2cccc(Cl)c2C(=O)O)n1 [Pyrithiobac] : 1 (yes)
3) COc1nn(C(=O)NS(=O)(=O)c2ccccc2OC(F)(F)F)c(=O)n1C [Flucarbazone] : 0 (no)
4) COc1ncc(F)c2nc(S(=O)(=O)Nc3c(F)cccc3F)nn12 [Florasulam] : 1 (yes)
5) COc1cc(OC)nc(NC(=O)NS(=O)(=O)c2cc(CNS(C)(=O)=O)ccc2C(=O)O)n1 [Mesosulfuron] : 0 (no)

Quick check: does COCc1cnc(C2=NC(C)(C(C)C)C(=O)N2)c(C(=O)O)c1 (stereo not shown) [Imazamox] have Resistance factor A205V greater than or equal to 20?
1 (yes)

Check COc1cc(OC)n2nc(NS(=O)(=O)c3c(C(F)(F)F)ccnc3OC)nc2n1 [Pyroxulam] too.
1 (yes)

Check COc1cc(OC)nc(NC(=O)NS(=O)(=O)c2cc(NC=O)ccc2C(=O)N(C)C)n1 [Foramsulfuron] too.
0 (no)

Check COc1nn(C(=O)NS(=O)(=O)c2c(C(=O)O)csc2C)c(=O)n1C [Thiencarbazone] too.
0 (no)

Check COc1nc(C)nc(NC(=O)NS(=O)(=O)c2ccccc2CCC(F)(F)F)n1 [Prosulfuron] too.
1 (yes)

Check CC(C)C1(C)N=C(c2nc3ccccc3cc2C(=O)O)NC1=O (stereo not shown) [Imazaquin] too.
1 (yes)

Check O=C(Nc1nc(OC(F)F)cc(OC(F)F)n1)NS(=O)(=O)c1ccccc1C(=O)O [Primisulfuron] too.
1 (yes)

Check COc1cc(OC)nc(Oc2cccc(Oc3nc(OC)cc(OC)n3)c2C(=O)O)n1 [Bispyribac] too.
0 (no)

Check COc1cc(OC)n2nc(S(=O)(=O)Nc3c(Cl)ccc(C)c3Cl)nc2n1 [Metosulam] too.
1 (yes)

Check COc1cc(OC)nc(NC(=O)NS(=O)(=O)c2ncccc2C(=O)N(C)C)n1 [Nicosulfuron] too.
1 (yes)

Check COc1cc(OC)nc(Sc2cccc3c2C(=O)OC3C)n1 (stereo not shown) [Pyriftalid] too.
0 (no)

Check COc1nc(NC(=O)NS(=O)(=O)c2ccccc2C(F)(F)F)nc(C(F)(F)F)n1 [Tritosulfuron] too.
1 (yes)

Check COc1cc(OC)nc(NC(=O)NS(=O)(=O)c2ncccc2OCC(F)(F)F)n1 [Trifloxysulfuron] too.
0 (no)
